Numbers sourced from the supplement of paper PMC3334620.

TARGET ENTITY: Zap1 (UniProt P47043)
Sequence: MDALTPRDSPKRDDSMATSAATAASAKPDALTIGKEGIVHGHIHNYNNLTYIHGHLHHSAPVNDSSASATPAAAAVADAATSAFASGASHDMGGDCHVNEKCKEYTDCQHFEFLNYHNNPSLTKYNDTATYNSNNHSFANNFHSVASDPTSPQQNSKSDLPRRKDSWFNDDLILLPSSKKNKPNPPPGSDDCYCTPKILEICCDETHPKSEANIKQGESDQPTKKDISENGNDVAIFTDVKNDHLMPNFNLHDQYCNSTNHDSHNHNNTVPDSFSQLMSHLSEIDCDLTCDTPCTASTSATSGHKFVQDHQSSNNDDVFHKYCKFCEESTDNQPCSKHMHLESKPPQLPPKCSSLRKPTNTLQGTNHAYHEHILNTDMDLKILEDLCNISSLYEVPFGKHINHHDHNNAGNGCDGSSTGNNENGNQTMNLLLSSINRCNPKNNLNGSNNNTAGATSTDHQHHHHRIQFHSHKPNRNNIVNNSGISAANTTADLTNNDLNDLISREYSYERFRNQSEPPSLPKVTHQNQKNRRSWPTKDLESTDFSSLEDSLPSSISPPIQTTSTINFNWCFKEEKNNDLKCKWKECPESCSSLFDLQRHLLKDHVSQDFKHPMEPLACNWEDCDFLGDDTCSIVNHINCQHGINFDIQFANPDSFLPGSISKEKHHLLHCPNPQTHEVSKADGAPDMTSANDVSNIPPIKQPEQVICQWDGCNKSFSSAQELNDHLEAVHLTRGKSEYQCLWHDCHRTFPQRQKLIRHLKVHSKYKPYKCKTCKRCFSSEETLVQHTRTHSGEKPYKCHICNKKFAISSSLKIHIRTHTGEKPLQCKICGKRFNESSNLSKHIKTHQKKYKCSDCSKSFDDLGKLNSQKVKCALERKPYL
MEASUREMENT DESCRIPTION: PBM E-score (8-mer binding enrichment) (E-score (-0.5 to 0.5)); higher = stronger / more preferred TF binding
DETAILS: protein concentration: 200 nM; construct: GST-full length
Whole data set: some 33,000 sequences, median “E-score (-0.5 to 0.5)” near -0.021, cut for the highest 2% near 0.32. The list comes from a sample in which the highest values are over-represented; it also holds close analogues and randomly drawn sequences.
Kind request: treat 0.3 as inclusive, so PBM E-score at 0.3 or higher is 1, anything lower is -1.

item_sequence=CTACCCGC class_label=-1
item_sequence=AACCGCGC class_label=-1
item_sequence=AAAACCCT class_label=1
item_sequence=CCCCGTAA class_label=-1
item_sequence=CCGCGCGA class_label=-1

[Q] Test whether the sequence CTTAGAGA records PBM E-score of 0.3 or higher.
[A] -1

[Q] Check if PBM E-score >= 0.3 (inclusive). Item: ATACCTTA
[A] -1

[Q] // inclusive: PBM E-score at least 0.3? input: AAGGTAAA
[A] -1

[Q] Textbook exercise: given the entry ATGTCGCG , state whether its PBM E-score is greater than or equal to 0.3.
[A] -1

---

TARGET ENTITY: Zap1 (UniProt P47043)
Sequence: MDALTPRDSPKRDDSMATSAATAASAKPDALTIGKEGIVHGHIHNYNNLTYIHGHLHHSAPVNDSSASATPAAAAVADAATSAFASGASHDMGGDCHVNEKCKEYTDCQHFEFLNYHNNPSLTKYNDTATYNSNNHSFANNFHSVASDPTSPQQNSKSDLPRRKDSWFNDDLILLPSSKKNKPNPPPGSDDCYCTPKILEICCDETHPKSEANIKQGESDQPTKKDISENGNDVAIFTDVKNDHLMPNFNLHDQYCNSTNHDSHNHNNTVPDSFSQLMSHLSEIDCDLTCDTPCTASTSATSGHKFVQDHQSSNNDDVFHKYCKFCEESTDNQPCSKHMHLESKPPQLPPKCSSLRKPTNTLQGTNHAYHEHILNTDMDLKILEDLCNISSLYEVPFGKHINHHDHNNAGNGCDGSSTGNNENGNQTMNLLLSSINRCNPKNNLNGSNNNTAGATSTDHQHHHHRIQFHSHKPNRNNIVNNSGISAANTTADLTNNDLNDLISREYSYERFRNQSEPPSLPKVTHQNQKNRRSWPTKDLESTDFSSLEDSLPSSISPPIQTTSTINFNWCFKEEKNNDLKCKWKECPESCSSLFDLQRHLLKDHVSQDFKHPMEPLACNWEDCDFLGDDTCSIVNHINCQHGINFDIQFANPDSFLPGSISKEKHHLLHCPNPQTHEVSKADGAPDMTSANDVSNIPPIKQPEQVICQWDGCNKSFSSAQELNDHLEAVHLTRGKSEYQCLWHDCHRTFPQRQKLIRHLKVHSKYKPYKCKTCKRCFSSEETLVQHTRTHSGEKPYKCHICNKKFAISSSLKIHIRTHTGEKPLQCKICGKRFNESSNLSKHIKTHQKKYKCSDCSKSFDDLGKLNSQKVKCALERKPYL
MEASUREMENT DESCRIPTION: PBM E-score (8-mer binding enrichment) (E-score (-0.5 to 0.5)); higher = stronger / more preferred TF binding
DETAILS: protein concentration: 200 nM; construct: GST-full length
Over roughly 33,000 sequences, “E-score (-0.5 to 0.5)” has its median near -0.021; the highest 2% begin near 0.32. This excerpt belongs to a sample that is enriched for the highest values.
Classification field: enter 1 (yes) for PBM E-score values not below 0.2, 0 (no) for values below it.

Worked examples follow.
item_sequence=ACAGCAAC class_label="0 (no)"
item_sequence=GTTAACTA class_label="1 (yes)"
item_sequence=AGTACTGG class_label="0 (no)"
item_sequence=GTTAACCA class_label="1 (yes)"
item_sequence=TATGGGGA class_label="0 (no)"

# evaluate next
[Q] Check if PBM E-score >= 0.2 (inclusive). Item: ATAACCGA
[A] 1 (yes)
